Every entry's value here was drawn from paper PMC10895676.

assay: Chemical hydrolysis in aqueous buffers (PBS pH 7.3 / 8.0, citrate buffer pH 2.0), RP18-HPLC; assay type: physicochemical; conditions: 25 mM citrate buffer, pH 2.0, 37 °C
half-life values for the molecules below.
Express your answer in h, writing the number without its unit.

>>> measurement("CCCCCCCCCCCCCCCCCCOP(=O)(OCCCC)OP(=O)(O)OP(=O)(O)OP(=O)(O)OC[C@@H]1C=C[C@H](n2cc(C)c(=O)[nH]c2=O)O1 (stereo partly shown) [4d, δ-(Alkyl-C4; alkyl-C18)-d4T4P]")
66

Qu. Fill blank: measured half-life of the molecule CCCCCCCCCCCCCCCCCCOP(=O)(OCc1ccc(OC(=O)CCCC)cc1)OP(=O)(O)OP(=O)(O)OP(=O)(O)OC[C@@H]1C=C[C@H](n2cc(C)c(=O)[nH]c2=O)O1 (stereo partly shown) [compound 6, δ-(AB-C4; alkyl-C18)-d4T4P] is ____.
Ans. 27

###

biological target: human DNA polymerase β (Homo sapiens); construct: purchased Chimerx; test: Primer extension assay using human DNA polymerase β; assay type: biochemical; conditions: 60 min, 2 U, 37 °C
Value Type: substrate for human DNA polymerase β (primer extension)

>>> measurement("CCCCOP(=O)(OCCCC)OP(=O)(O)OP(=O)(O)OP(=O)(O)OC[C@@H]1C=C[C@H](n2cc(C)c(=O)[nH]c2=O)O1")
"substrate"
>>> measurement("Cc1cn([C@H]2C=C[C@@H](COP(=O)(O)OP(=O)(O)OP(=O)(O)O)O2)c(=O)[nH]c1=O [d4TTP, d4T triphosphate, reference compound]")
"substrate"

###

system: HIV-2 (ROD); assay: Anti-HIV replication assay, HIV-2 (ROD) in thymidine kinase-deficient CEM/TK– cells; type: cell-based; details: Human immunodeficiency virus 2; CEM/TK– cells; mean ± SD, n = 2–3; read-out: CEM/TK– HIV-2 (ROD) EC50
Value Type: EC50
Please don't drop the unit; write it after the number.

Illustrative cases are given below, each with its answer.
>>> measurement("CCCCCCCCCCCCCCCCCCP(=O)(O)OP(=O)(O)OP(=O)(O)OP(=O)(O)OC[C@@H]1C=C[C@H](n2cc(C)c(=O)[nH]c2=O)O1")
"1350 nM"
>>> measurement("CCCCCCCCCCCCCCCCCCP(=O)(OCc1ccc(OC(=O)CCCC)cc1)OP(=O)(O)OP(=O)(O)OP(=O)(O)OC[C@@H]1C=C[C@H](n2cc(C)c(=O)[nH]c2=O)O1 (stereo partly shown)")
"6.5 nM"
>>> measurement("CCCCCCCCCCCCCCCCCCOP(=O)(OCCCC)OP(=O)(O)OP(=O)(O)OP(=O)(O)OC[C@@H]1C=C[C@H](n2cc(C)c(=O)[nH]c2=O)O1 (stereo partly shown)")
"180 nM"
>>> measurement("CCCCCCCCCCCCCCCCCCP(=O)(OCC(CC)CCCC)OP(=O)(O)OP(=O)(O)OP(=O)(O)OC[C@@H]1C=C[C@H](n2cc(C)c(=O)[nH]c2=O)O1 (stereo partly shown)")
"160 nM"
>>> measurement("CCCCCCCCCC(=O)Oc1ccc(COP(=O)(OCc2ccc(OC(=O)CCCCCCCCC)cc2)OP(=O)(O)OP(=O)(O)OC[C@@H]2C=C[C@H](n3cc(C)c(=O)[nH]c3=O)O2)cc1 [1a, γ-(AB-C9; AB-C9)-d4TTP, reference compound]")
"290 nM"
>>> measurement("CCCCCCCCCCCCCCCCCCOP(=O)(O)OP(=O)(O)OP(=O)(O)OP(=O)(O)OC[C@@H]1C=C[C@H](n2cc(C)c(=O)[nH]c2=O)O1")
"4600 nM"

Qu. Requested read-out EC50, target or system HIV-2 (ROD), entry CCCCCCCCCCCCCCCCCCOP(=O)(OCCCCCCCCCCCCCCCCCC)OP(=O)(O)OP(=O)(O)OP(=O)(O)OC[C@@H]1C=C[C@H](n2cc(C)c(=O)[nH]c2=O)O1
Ans. 6180 nM

Qu. Please provide the recorded EC50 for Cc1cn([C@H]2C=C[C@@H](COP(=O)(O)OP(=O)(O)OP(=O)(O)OP(=O)(O)O)O2)c(=O)[nH]c1=O , tested on HIV-2 (ROD).
Ans. 33800 nM

Qu. Fill in the recorded EC50 for this compound, with HIV-2 (ROD) as test system: CCCCCCCCCCCCCCCCOC(=O)Oc1ccc(COP(=O)(OCc2ccc(OC(=O)CCCC)cc2)OP(=O)(O)OP(=O)(O)OP(=O)(O)OC[C@@H]2C=C[C@H](n3cc(C)c(=O)[nH]c3=O)O2)cc1 (stereo partly shown)
Ans. 9710 nM

Qu. Please provide the recorded EC50 for CCCCCCCCCCCCCCCCCCOP(=O)(OCc1ccc(OC(=O)CCCC)cc1)OP(=O)(O)OP(=O)(O)OP(=O)(O)OC[C@@H]1C=C[C@H](n2cc(C)c(=O)[nH]c2=O)O1 (stereo partly shown) , tested on HIV-2 (ROD).
Ans. 59 nM
